Values compiled from PubChem BioAssay AID179.

Test system: CEM cells HIV-1 protection, formazan growth assay
ASSAY REMARKS: NCI AIDS Antiviral Assay
pEC50: −log10 of the molar value.
READOUT NAME: pEC50

Some solved cases for reference:
c1ccc(-c2cn3nc(N4CCOCC4)sc3n2)cc1 | < 3.70
CCNC(=O)c1c(O)c2ccccc2[nH]c1=O | < 3.70
CCNC(=S)N/N=C(/C)c1cccc(/C(C)=N\NC(=S)NCC)n1 | < 3.70
CC(=O)Nc1cc2c(s1)CCC1CC(=O)NN=C21 (configuration not stated) | < 3.70
Cc1ccc(S(=O)(=O)SS(=O)(=O)c2ccc(C)cc2)cc1 | 4.86

Value of measured pEC50 for the entry CCOC(OC1=C(C#N)CCCC1)C(CC)[Se]c1ccccc1[N+](=O)[O-] (configuration not stated) : < 4.63

====

Tested on: CEM cells HIV-1 protection, formazan growth assay
ASSAY REMARKS: NCI AIDS Antiviral Assay;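 active = compounds giving half or more protection of infected cells from virus-caused growth loss, again on retest; inactive = the rest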
Method: The ability of compounds to protect human CEM cells from HIV-1 infection is measured as a screen for new compounds capable of inhibiting the HIV virus. Five concentrations of drug were tested on uninfected and infected cells and cell growth was measured using a soluble formazan assay. […] Compounds that provided at least 50% protection were retested. Compounds that provided at least 50% protection on retest were listed as moderately active. […]
// classify into active, inactive

Example results:
CC1(C)COC(C23C4C5C2C2C3C4C52I)=N1 (centres undefined) | inactive
Cc1ccc(S(=O)(=O)c2ccccc2)cc1 | inactive
CC1C(=O)N2C(=O)C(C)C(C)C(=O)N2C(=O)C1C (centres undefined) | inactive
C/C(CC(=O)Nc1ccc(Cl)cc1)=N\NC(N)=S | inactive
O=C(CC(NC(=O)C(F)(F)F)C(=O)O)OCc1ccccc1 (centres undefined) | inactive

Req: Entry COC1C(OC(=O)c2ccc(C)[nH]2)C(O)C(Oc2ccc3c(O)c(NC(=O)c4c[nH]c(C(=O)Nc5c(O)c6ccc(OC7OC(C)(C)C(OC)C(OC(=O)c8ccc(C)[nH]8)C7O)c(C)c6oc5=O)c4C)c(=O)oc3c2C)OC1(C)C (centres undefined) : call = ?
Resp: active

Req: Entry O=S(=O)(SSS(=O)(=O)c1ccc(Cl)cc1)c1ccc(Cl)cc1 : call = ?
Resp: inactive

Req: Entry CSc1cc(C(=O)Nc2ccc(C3=NCCN3)cc2)ccc1C(=O)Nc1ccc(C2=NCCN2)cc1 : call = ?
Resp: inactive

Req: Entry COCCN1C(=O)C2c3[nH]c4ccccc4c3C3CCC(C(C)(C)C)CC3C2C1=O (centres undefined) : call = ?
Resp: inactive

====

Listed next: entries and their corresponding pIC50.
System: CEM cells HIV-1 protection, formazan growth assay
ASSAY REMARKS: NCI AIDS Antiviral Assay
EXPERIMENTAL CONDITIONS: measured here: growth of uninfected CEM cells
Reminder that pIC50 is minus the log10 of a molar concentration.

Cc1ccc(S(=O)(=O)/N=C(\N)N(C)N=O)cc1 | 4.20
O=C1c2ccccc2C(=Nc2ccc3ccccc3c2)C1(C1=C(c2ccccc2)C(=Nc2ccc3ccccc3c2)c2ccccc21)c1ccccc1 (stereo not given) | 4.93
CCC(=O)Oc1ccc2c(=O)c(-c3ccc(OC)cc3)c(CC)oc2c1 | 4.60
COC(=O)[C@@H]1C=C[C@H](OC2OC(COC(C)=O)C(OC(C)=O)C(OC(C)=O)C2OC(C)=O)n2c(=O)c3ccccc3c(=O)n21 (stereo not given in full) | 4.97
CCOC(=O)C1Cc2ccc(C)cc2C1=O (stereo not given) | 3.96
COc1ccc(/C=C2\CCC/C(=C\c3ccc(O)c(CN4CCCCC4)c3)C2=O)cc1 | 5.50
CCCCCCCCCc1nn2c(Cc3ccccc3)nnc2s1 | 4.44
NC(=S)N/N=C(/CC(=O)c1ccc([N+](=O)[O-])cc1)C(=O)Nc1ncc([N+](=O)[O-])s1 | 4.09

Value of measured pIC50 for the entry N#CC(C(=O)C(=O)Nc1ccc(Cl)c(Cl)c1)c1ccc(Cl)cc1 (stereo not given) : 3.97

Value of measured pIC50 for the entry COc1ccc(-c2c(C3=NCCCN3)nnn2-c2ccccc2)cc1 : 3.55

Value of measured pIC50 for the entry CCC1CCc2c(c(=O)oc3c2cc(OC)c2cccc(OC)c23)C1 (stereo not given) : 4.06

Value of measured pIC50 for the entry O=C1OC(=C(Cl)Cl)C2C3c4ccccc4C(c4ccccc43)C12 (stereo not given) : 4.32

Value of measured pIC50 for the entry CC(=O)OCC1OC(n2c(C#N)cc(=O)[nH]c2=O)CC1OC(C)=O (stereo not given) : 4.24

Value of measured pIC50 for the entry COC(=O)c1c2c(cc3c1CC1(C3)Cc3ccc4c(c3C1=O)CCC4)CCC2 (stereo not given) : 5.38

Value of measured pIC50 for the entry CC1(C)OC(=O)C(=Cc2cccc(Br)c2)C(=O)O1 : 5.73

Value of measured pIC50 for the entry COc1cccc(NC(=O)c2c(SC)c(C#N)c(=O)n(N)c2N)c1 : 3.97

Value of measured pIC50 for the entry COc1ccc2c(=O)c(-c3ccc(OC)c(OC)c3OCc3ccccc3)coc2c1 : 4.16

Value of measured pIC50 for the entry CC(=O)Nc1ccc2oc(=O)ccc2c1 : 3.25

Value of measured pIC50 for the entry CN1C(OCc2ccccc2)c2c(ccc3c2OCO3)C2C=Cc3cc4c(cc3C21)OCO4 (stereo not given) : 6.17

Value of measured pIC50 for the entry O=c1c2ccc(Cl)cc2oc2c(CSc3ccccc3)cccc12 : 5.01

Value of measured pIC50 for the entry CN(C)c1ccc(C(=C(c2ccc(N(C)C)cc2)c2ccc(N(C)C)cc2)c2ccc(N(C)C)cc2)cc1 : 6.00

====

System: CEM cells HIV-1 protection, formazan growth assay
ASSAY REMARKS: NCI AIDS Antiviral Assay
pEC50: −log10 of the molar value.
READOUT NAME: pEC50

Some solved cases for reference:
NC(=O)NNc1nc2ccccc2c(=O)n1NC(=O)C(=O)Nc1ccc(Cl)cc1Cl | < 4.10
O=C1c2c(nc3ccccc3c2-c2ccccc2)CN1Nc1ccccc1 | < 4.06
C=CCN1CCC23c4c5ccc(O)c4OC2C(=NN=C2CCC4(O)C6Cc7ccc(O)c8c7C4(CCN6CC=C)C2O8)CCC3(O)C1C5 (centres undefined) | < 3.70

Reported pEC50 (CEM cells HIV-1 protection, formazan growth assay) for entry CCC12CC(c3ccccc3)C(C(=O)N1)C(=O)N2 (centres undefined) is < 3.70

Reported pEC50 (CEM cells HIV-1 protection, formazan growth assay) for entry CC1=NN(c2nc(N)nc(C(C)Sc3cc(Cl)c(C)cc3S(N)(=O)=O)n2)C(C)(C)C1 (centres undefined) is < 3.70

Reported pEC50 (CEM cells HIV-1 protection, formazan growth assay) for entry CC(=O)OCC1OC(n2c(C)c(N=Nc3ccc(Cl)cc3)c(C)c(C#N)c2=S)C(OC(C)=O)C(OC(C)=O)C1OC(C)=O (centres undefined) is < 3.70

Reported pEC50 (CEM cells HIV-1 protection, formazan growth assay) for entry C/C(CC(=O)Nc1cccc(Cl)c1C)=N\N=C(N)N is < 4.04

Reported pEC50 (CEM cells HIV-1 protection, formazan growth assay) for entry COc1ccc(N2C(=O)/C(=C(\C)c3cc4ccccc4oc3=O)N=C2c2cc([N+](=O)[O-])ccc2Cl)cc1 is < 5.00

Reported pEC50 (CEM cells HIV-1 protection, formazan growth assay) for entry CCOC(=O)/C(C#N)=C/c1ccc(CO)o1 is < 3.70

====

Tested on: CEM cells HIV-1 protection, formazan growth assay
ASSAY REMARKS: NCI AIDS Antiviral Assay;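 active = compounds giving half or more protection of infected cells from virus-caused growth loss, again on retest; inactive = the rest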
// classify into active, inactive

Example results:
COc1ccc(C2CC(c3c(O)ccc4ccccc34)=NN2c2ccc([N+](=O)[O-])cc2[N+](=O)[O-])cc1OC (centres undefined) | inactive
CCOC(=O)/C(=C\c1ccc(Cl)cc1)P(=O)(OCC)OCC | inactive
O=C1/C(=C/c2ccco2)NC(=S)N1CN1CCOCC1 | inactive

Pending compound:
Req: Entry COc1cc(=O)oc2c3c(ccc12)OC(C)(C)[C@H](OC(=O)C12CCC(C)(C(=O)O1)C2(C)C)[C@@H]3OC(=O)C12CCC(C)(C(=O)O1)C2(C)C (some centres undefined) : call = ?
Resp: active

====

Test system: CEM cells HIV-1 protection, formazan growth assay
ASSAY REMARKS: NCI AIDS Antiviral Assay
READOUT NAME: EC50

Some solved cases for reference:
O=Cc1cc(C(=O)OCc2ccccc2)n(S(=O)(=O)c2ccccc2)c1 | > 200 µM
O=P1(NC2CCCC2)OCC2(CO1)COP(=O)(NC1CCCC1)OC2 (stereo unspecified) | > 200 µM
Cc1nc2c(N)ncnc2o1 | > 9.55 µM
CC(C)CC1C(=O)NCCC(NC(=O)C(N)Cc2ccc(O)cc2)C(=O)NC(Cc2ccccc2)C(=O)NC(Cc2ccccc2)NC1=O (stereo unspecified) | > 100 µM
O=C(O)C1CCC(c2ccc(Oc3ccccc3)cc2)=N1 (stereo unspecified) | > 200 µM

Value of measured EC50 for the entry CCOC(=O)/C(C#N)=C/c1ccc(Br)cc1 : > 93.3 µM

Value of measured EC50 for the entry CC(C)[Si](OC1=CCC[C@H]2NC(=O)[C@@H](Cc3ccc([N+](=O)[O-])cc3)[C@@]12C)(C(C)C)C(C)C : > 200 µM

Value of measured EC50 for the entry CCOC(=O)c1c(C)[nH]c(=S)c(C#N)c1-c1ccco1 : > 200 µM
